The origin of these recorded values is ChEMBL document CHEMBL4038330.

# Run Description: AUC (0 to infinity) in Wistar rat at 1 mg/kg, iv administered as bolus dose measured up to 24 hrs post dose by HPLC-MS/MS analysis
# Format: ADME, organism-based
# Parameters: dose 1 mg/kg, time infinity, route intravenous
# Details: in vivo
Experimental Readout: AUC(0-inf)
Show the value, then the unit it is measured in.

Challenge: May I ask what AUC(0-inf) has been recorded for CC1CC[C@@H]2C(C)(C)[C@H](O)CC[C@@]2(C)[C@@H]1/C=C/c1ccc(-c2cccc(F)c2)cn1 (single isomer, unassigned) ?
Response given: 552 ng·h/mL

###

# Test system: ADP-stimulated platelet aggregation
# Run Description: Toxicity in guinea pig assessed as inhibition of ADP-stimulated platelet aggregation at 30 mg/kg, po pretreated for 2 hrs followed by ADP stimulation measured after 5 mins
# Assay type: organism-based, Cavia porcellus
# Details: in vivo
Experimental Readout: inhibition at 5 min (%)
Just the number in %, nothing appended.

Challenge: May I ask what inhibition at 5 min has been recorded for CC1CC[C@@H]2C(C)(C)[C@H](O)CC[C@@]2(C)[C@@H]1/C=C/c1ccc(-c2cccc(F)c2)cn1 (single isomer, unassigned) ?
Response given: 4.5

###

# Run Description: Apparent terminal half life in Wistar rat at 1 mg/kg, iv administered as bolus dose measured up to 24 hrs post dose by HPLC-MS/MS analysis
# Format: ADME, organism-based
# Details: in vivo, read-out: betat1/2(app) (converted)
Experimental Readout: half-life (h)
Just the number in h, nothing appended.

Challenge: May I ask what half-life has been recorded for CC1CC[C@@H]2C(C)(C)[C@H](O)CC[C@@]2(C)[C@@H]1/C=C/c1ccc(-c2cccc(F)c2)cn1 (single isomer, unassigned) ?
Response given: 2

###

# Run Description: Apparent volume of distribution in Wistar rat at 1 mg/kg, iv administered as bolus dose measured up to 24 hrs post dose by HPLC-MS/MS analysis
# Format: ADME, organism-based
# Details: in vivo, read-out: Vd(app)
Experimental Readout: Vd (L/kg)
Just the number in L/kg, nothing appended.

Challenge: May I ask what Vd has been recorded for CC1CC[C@@H]2C(C)(C)[C@H](O)CC[C@@]2(C)[C@@H]1/C=C/c1ccc(-c2cccc(F)c2)cn1 (single isomer, unassigned) ?
Response given: 5.7

###

# System: Proteinase-activated receptor 1 (Homo sapiens)
# Sequence (P25116 whole entry): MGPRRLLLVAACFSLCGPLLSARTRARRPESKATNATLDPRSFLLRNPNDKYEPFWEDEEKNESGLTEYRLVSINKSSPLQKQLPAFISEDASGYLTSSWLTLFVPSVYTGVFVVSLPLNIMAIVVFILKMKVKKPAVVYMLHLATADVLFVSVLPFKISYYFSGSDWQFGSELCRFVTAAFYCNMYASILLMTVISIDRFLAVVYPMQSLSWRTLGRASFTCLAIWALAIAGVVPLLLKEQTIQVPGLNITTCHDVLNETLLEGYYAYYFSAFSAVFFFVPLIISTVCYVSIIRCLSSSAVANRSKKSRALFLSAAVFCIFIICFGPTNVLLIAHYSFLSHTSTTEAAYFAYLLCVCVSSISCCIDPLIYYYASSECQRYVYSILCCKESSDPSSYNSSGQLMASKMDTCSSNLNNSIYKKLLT
# Run Description: Antagonist activity at human PAR1 expressed in HEK293 cells co-expressing Galpha15 assessed as inhibition of haTRAP-induced calcium mobilization preincubated for 15 mins followed by haTRAP addition by calcium-4 dye based FLIPR assay
IC50: recorded values

Challenge: Recall the recorded IC50 for C[C@@]1(/C=C/c2ccc(-c3cccc(F)c3)cn2)[C@H]2CC[C@@H]3COC(=O)[C@H]3[C@]2(C)CC[C@H]1OC(N)=O with Proteinase-activated receptor 1 (Homo sapiens) and state it.
Response given: 12 µM

Challenge: Again, but for CC(=O)O[C@@H]1CC[C@@]2(C)[C@@H]3C(=O)OC[C@H]3CC[C@@H]2[C@@]1(C)/C=C/c1ccc(-c2cccc(F)c2)cn1
Response given: > 100 µM

Challenge: Again, but for C[C@]1(/C=C/c2ccc(-c3cccc(F)c3)cn2)[C@H](O)CC[C@@]2(C)[C@@H]3C(=O)OC[C@H]3CC[C@H]12
Response given: > 100 µM

Challenge: Again, but for C[C@H]1CC[C@@H]2C(C)(C)C=CC[C@@]2(C)[C@@H]1/C=C/c1ccc(-c2cccc(F)c2)cn1
Response given: > 100 µM
